Data provenance is patent US20230096452A1.

EXPERIMENTAL TARGET: T1, human claudin 18.2 (hCLDN18.2) (human)
T1 construct: also called CLDN18 splice variant 2; HEK293-hCLDN18.2
MEASUREMENT NOTES: flow cytometry on HEK293-hCLDN18.2 cells; 5 ug/mL; antibody heat treated at 70 C for 5 min
Known FACS binding signal (read-out unnamed) of a selection of binders
MEASURE: FACS binding signal (read-out unnamed)

[[record]]
binder = "5-M9 human-mouse chimeric monoclonal antibody (antibody, human IgG1, V domains shown, Mouse V regions fused to human IgG1 (G1m17) heavy chain constant region and human kappa light chain constant region; also called 5-M9-A; Chi 5-M9) VH: QVQLKESGPVLVAPSQSLSITCTVSGFSLTTYGVQWVRQPPGKGLEWLGAIWAGGNTNYNSALMSRLSISKDNSKSQVFLKMNSLQTDDTAIYYCAKGGYGNAMDYWGQGTSVTVAS VL: DIVMTQSPSSLTVTAGERVTMSCKSSQSLLNSGNQKNYLTWYQQKSGQPPKLLIYWASTRESGVPDRFTGSGSGTDFTLTISSVQAEDLAVYYCQNDYFFPFTFGSGTKLEIK"
meas_value = 746

[[record]]
binder = "h5M9V12 humanized antibody (h5M9 VHv4 / h5M9 VLv3) (antibody, human IgG1, kappa, V domains shown, Human IgG1 (G1m17) / kappa) VH: QVQLKESGPGLVAPSETLSITCTVSGFSLTTYGVQWVRQPPGKGLEWLGAIWAGGNTNYNSALMSRLTISKDNSKSQVSLKMSSLTAADTAIYYCAKGGYGNAMDYWGQGTLVTVSS VL: DIVMTQSPSSLAVSLGERVTMNCKSSQSLLNSGNQKNYLTWYQQKPGQPPKLLIYWASTRESGVPDRFTGSGSGTDFTLTISSVQAEDLAVYYCQNDYFFPFTFGSGTKLEIKR"
meas_value = 673

[[record]]
binder = "h5M9v9 humanized antibody (h5M9 VHv3 / h5M9 VLv3) (antibody, V domains shown, Human IgG1 (G1m17) heavy and human kappa light constant regions) VH: QVQLKESGPGLVAPSETLSITCTVSGFSLTTYGVQWVRQPPGKGLEWLGAIWAGGNTNYNSALMSRLTISKDNSKSQVSLKMSSVTAADTAIYYCAKGGYGNAMDYWGQGTLVTVSS VL: DIVMTQSPSSLAVSLGERVTMNCKSSQSLLNSGNQKNYLTWYQQKPGQPPKLLIYWASTRESGVPDRFTGSGSGTDFTLTISSVQAEDLAVYYCQNDYFFPFTFGSGTKLEIK"
meas_value = 636

[[record]]
binder = "h5M9V7 humanized antibody (h5M9 VHv3 / h5M9 VLv1) (antibody, human IgG1, kappa, V domains shown, Human IgG1 (G1m17) / kappa) VH: QVQLKESGPGLVAPSETLSITCTVSGFSLTTYGVQWVRQPPGKGLEWLGAIWAGGNTNYNSALMSRLTISKDNSKSQVSLKMSSVTAADTAIYYCAKGGYGNAMDYWGQGTLVTVSS VL: DIVMTQSPSSLAVSLGERATMNCKSSQSLLNSGNQKNYLTWYQQKPGQPPKLLIYWASTRESGVPDRFSGSGSGTDFTLTISSVQAEDLAVYYCQNDYFFPFTFGQGTKLEIKR"
meas_value = 732

